Reference source: ChEMBL document CHEMBL1140206

- target_of_assay: Neuronal acetylcholine receptor; alpha3/beta4 (Rattus norvegicus) (UniProt P04757+P12392)
- protocol_details: Agonist activity at rat alpha-3-beta-4 nAChR expressed in HEK293 cells by FMP assay relative to acetylcholine
- Format: functional, cell-based
Kindly supply the reported Activity values for the records listed here.
State just the number; it will be interpreted in %.

**Query** Record request: Activity value, item CC(CCOC(=O)N1CCC1)N(C)C (stereo not drawn)
**Result** 106

**Query** One more compound: CC(CCOC(=O)N(C)C)N(C)C (stereo not drawn)
**Result** 105

**Query** One more compound: CC(CCOC(=O)N1CCC1(C)C)N(C)C (stereo not drawn)
**Result** 90

**Query** One more compound: CC(CCOC(=O)N1CCC1C)N(C)C (stereo not drawn)
**Result** 89

**Query** One more compound: CC(CCOC(=O)C1CC1)N(C)C (stereo not drawn)
**Result** 105

**Query** One more compound: CC(CCOC(=O)n1cccc1)N(C)C (stereo not drawn)
**Result** 27

**Query** One more compound: CC1CN(C(=O)OCCC(C)N(C)C)C1 (stereo not drawn)
**Result** 91

**Query** One more compound: CC(CCOC(=O)N1CC(F)(F)C1)N(C)C (stereo not drawn)
**Result** 75
